tested on: Rattus norvegicus; experiment: Percent inhibitory activity in rat passive cutaneous anaphylaxis test at a dose of 25 mg/kg administered perorally; assay type: functional; details: Rattus norvegicus, po
Label Satisfied when inhibition in vivo at 25 mg/kg is at or above 40%; anything below gets Not satisfied.

Prompt: Does inhibition in vivo at 25 mg/kg meet or surpass 40% for CCCn1c(=O)c2nnc(O)n2c2ccc(Cl)cc21 ?
Response: Satisfied

Prompt: Does the compound Cn1c(=O)c2nnc(O)n2c2ccc(Cl)cc21 have recorded inhibition in vivo at 25 mg/kg that is 40% or more?
Response: Not satisfied

Prompt: Given COc1cc2c(c(Cl)c1OC)n(C)c(=O)c1nnc(O)n12 , state whether its inhibition in vivo at 25 mg/kg is at least 40%.
Response: Not satisfied

Prompt: Check if inhibition in vivo at 25 mg/kg >= 40% (inclusive). Item: Cn1c(=O)c2nnc(O)n2c2cc(Cl)ccc21
Response: Satisfied

Prompt: Confirm if inhibition in vivo at 25 mg/kg reported for the compound Cn1c(=O)c2nn(S(C)(=O)=O)c(=O)n2c2ccccc21 is 40% or above.
Response: Not satisfied

Prompt: Hello, I need to know if Cc1ccc2c(c1)n(C)c(=O)c1nnc(O)n12 has measured inhibition in vivo at 25 mg/kg not below 40%. Thanks!
Response: Not satisfied

Prompt: Can CC(=O)n1nc2c(=O)n(C)c3cc(C)c(C)cc3n2c1=O be said to have inhibition in vivo at 25 mg/kg at or above 40%?
Response: Not satisfied

Prompt: Determine whether measured inhibition in vivo at 25 mg/kg meets or exceeds 40% for Cn1c(=O)c2nnc(O)n2c2ccccc21
Response: Not satisfied

Prompt: # bool: inhibition in vivo at 25 mg/kg of Cn1nc2c(=O)n(C)c3ccccc3n2c1=O >= 40%
Response: Not satisfied

Prompt: In plain terms: is recorded inhibition in vivo at 25 mg/kg at least 40% for CC(=O)c1ccc2c(c1)n(C)c(=O)c1nnc(O)n12 ?
Response: Satisfied

Prompt: Item Cn1c(=O)c2nnc(O)n2c2ccc(O)cc21 with inhibition in vivo at 25 mg/kg of 40% or above?
Response: Not satisfied

Prompt: Identify whether the reported inhibition in vivo at 25 mg/kg of the following compound is 40% or greater: CC(=O)n1nc2c(=O)n(C(C)=O)c3ccccc3n2c1=O
Response: Not satisfied

* * *

test system: Rattus norvegicus; experiment: Percent inhibitory activity in rat passive cutaneous anaphylaxis test at a dose of 25 mg/kg administered perorally; assay type: functional; conditions: Rattus norvegicus, po
value.type: inhibition in vivo at 25 mg/kg (%)
Number in %, nothing else.

Prompt: State the recorded inhibition in vivo at 25 mg/kg for this entry: Cc1cccc2c1n(C)c(=O)c1nnc(O)n12
Response: 35

Prompt: Name the reported inhibition in vivo at 25 mg/kg value associated with the molecule CCCn1c(=O)c2nnc(O)n2c2ccccc21
Response: 58

Prompt: State the recorded inhibition in vivo at 25 mg/kg for this entry: Oc1nc2ccccc2n2c(O)nnc12
Response: 40

Prompt: Which value of inhibition in vivo at 25 mg/kg has been reported for COc1ccc2c(c1)n(C)c(=O)c1nnc(O)n12 in the records?
Response: 10

Prompt: Fill in the blank: the reported inhibition in vivo at 25 mg/kg of Cn1c(=O)c2nnc(O)n2c2ccc(C(F)(F)F)cc21 is ____.
Response: 52

Prompt: # inhibition in vivo at 25 mg/kg lookup, item CCCn1c(=O)c2nn(C(=O)/C=C/c3ccccc3)c(=O)n2c2ccc(Cl)cc21
Response: 38
